Please provide measured growth for the entries that follow.
test system: RXF 393 renal; assay: NCI-60 one-dose screen, 48 h (100 = growth as untreated, 0 = no growth, -100 = all killed); conditions: 10 µM unless noted
This is part of a sample that, as a whole, favours compounds with a hit. Of some 83,000 tested, about 20% had one in any assay.
Use % as the unit, but write only the number.

Input line: Look up growth of O=C(O)c1ccc2c(c1)CCC2 and report it.
Output line: 120

Input line: Fill in reported growth for this entry: CCN1C(=O)N(CC)C2Nn3c(s/c(=C\c4ccc(Cl)cc4Cl)c3=O)=NC21 (stereo not given)
Output line: 43

Input line: Indicate the recorded growth value for this compound: CCCCCCCCCCCCCCCCCCOc1ccc(CC(=O)OCC[N+]2(C)CCCC2)cc1
Output line: 101

Input line: Please supply the value of reported growth for the item CCCCNC(=O)Oc1ccc2c(=O)c3sc4c(=O)c5ccccc5c(=O)c4c3c(=O)c2c1
Output line: -87.1

Input line: Return value of growth for input Cc1cc(NCCCCNc2ccnc3cc(Cl)ccc23)nc(Nc2ccc(C(=O)N3CCCCC3)cc2)n1 , no commentary.
Output line: -74.4

Input line: Indicate its recorded growth; the compound in question is C[n+]1cccc(CC(=O)NO)c1
Output line: 106

Input line: Identify growth associated with the compound C=C(C)[C@@H]1CC=C2c3sc(-c4ccc(C)cc4)nc3C[C@@H](C)[C@]2(C)C1
Output line: 113

Input line: State, in one line, measured growth of Clc1cccc(Cl)c1C(Nc1nc2ccccc2s1)Nc1nc2ccccc2s1
Output line: 104

Input line: For the compound O=C(c1ccccc1)c1c(/C=C/c2ccccc2)nc2ccccc2c1/C=C/c1ccc(Br)cc1 , give its measured growth value.
Output line: 104

Input line: Given the compound O=C1N=c2cc3c(cc2=C/C1=C/c1sc(=S)n(CCc2ccc(O)cc2)c1O)OCCO3 , write its reported growth.
Output line: 92.9
